# measurementProtocol: qHTS of pediatric cancer cell lines to identify multiple opportunities for drug repurposing: Primary screen for NB-EBc1 cells (AID 1347095)
# conditionNotes: NB-EBc1 neuroblastoma viability, CellTiter-Glo luminescence, 48 h; series mostly up to 46 µM
Inconclusive results are not listed. Calls of active or inactive are those of the source. The call rests on the fitted dose curve; in most records, active means well fitted cell-killing curve with a large enough effect; inconclusive means small, poorly fitted or top-dose-only effect; inactive means no such curve, though single readings can be large or run the other way.
Would you mind answering with one of these outcomes? active, inactive

-- ask For `CC(C)N[C@@H]1CCn2c(=O)[nH]c3cccc(c32)[C@@H]1O` , which call appears in the assay record?
-- reply inactive

-- ask For `CC(C)[C@]12O[C@@H]1[C@@H]1O[C@]13[C@]1(O[C@H]1C[C@@H]1C4=C(CC[C@@]13C)C(=O)OC4)[C@H]2O` , which call appears in the assay record?
-- reply active

-- ask For `CO/C=C(/C(=O)OC)c1ccccc1Oc1cc(Oc2ccccc2C#N)ncn1` , which call appears in the assay record?
-- reply active

-- ask For `COC(=O)[C@@H](N)CCCN=C(N)N[N+](=O)[O-]` , which call appears in the assay record?
-- reply inactive

-- ask For COC(C)(C)CCCC(C)C/C=C/C(C)=C/C(=O)OC(C)C (stereo not given) , which call appears in the assay record?
-- reply inactive

====

# measurementProtocol: qHTS to identify inhibitors of the type 1 interferon - major histocompatibility complex class I in skeletal muscle: primary screen against the NCATS Mechanism Interrogation Plate v5.0 (MIPE) Libary (AID 1347411); further: nearly all actives have a fitted effect of over 65% in size
# conditionNotes: iHSKM cells + IFN-b, HiBiT-tagged MHC-I luminescence, 24 h; series mostly up to 45.8 µM
Results filed as inconclusive are left out. Active and inactive are the calls of the source. Calls come from the whole dose curve; as a rule, active = well fitted inhibition curve with a large enough effect; inconclusive = small, poorly fitted or top-dose-only effect; inactive = no such curve, though single readings can be large or run the other way.
Would you mind answering with one of these outcomes? 1 for active, 0 for inactive

Solved entries:
molecule	classAssignment
C[C@]12CC[C@H]3[C@@H](CCC4=CC(=O)CC[C@@]43C)[C@H]1CC[C@H]2OC(=O)CCC1CCCC1	0
CCNC(=O)CC1N=C(c2ccc(Cl)cc2)c2cc(OC)ccc2-n2c(C)nnc21 (stereo not drawn)	0
CC[C@@H](C(N)=O)N1CCCC1=O	0
O=C(N[C@H]1CN2CCC1CC2)c1ccc(Cl)cc1	0
Cc1[nH]nc2ccc(-c3cncc(OC[C@@H](N)Cc4c[nH]c5ccccc45)c3)cc12	1

-- ask For `COC(=O)[C@@H](N)CCCN=C(N)N[N+](=O)[O-]` , which call appears in the assay record?
-- reply 0

-- ask For `O=C1C=CC[C@@H]2[C@H]3CCCN4CCC[C@@H](CN12)[C@@H]34` , which call appears in the assay record?
-- reply 0

-- ask For `C/C=C(/C)C(=O)O[C@H]1C(C)=C2[C@H]([C@@H]1OC(=O)CCCCCCC)[C@@](C)(OC(C)=O)C[C@H](OC(=O)CCC)[C@@]1(O)[C@H]2OC(=O)[C@@]1(C)O` , which call appears in the assay record?
-- reply 1

-- ask For `O=C(Oc1ccc([N+](=O)[O-])cc1)N1CCC(C(O)(c2ccc3c(c2)OCO3)c2ccc3c(c2)OCO3)CC1` , which call appears in the assay record?
-- reply 0

-- ask For `O=c1[nH]c2ccccc2n1C1CCN(Cc2ccc(-c3[nH]c4cc5ncnc5cc4nc3-c3ccccc3)cc2)CC1` , which call appears in the assay record?
-- reply 0

-- ask For CN1[C@H]2CC(O)C[C@H]1[C@H]1O[C@H]12 (stereo partly drawn) , which call appears in the assay record?
-- reply 0

-- ask For `CN[C@@H]1Cc2cccc3[nH]c(=O)n(c23)C1` , which call appears in the assay record?
-- reply 0

-- ask For `CCN1C[C@]2(OC(=O)c3ccccc3NC(C)=O)CC[C@H](OC)[C@@]34[C@H]5CC6[C@@H](OC)C[C@](O)(C(C[C@@H]23)[C@@H]14)[C@@]5(O)[C@@H]6OC` , which call appears in the assay record?
-- reply 0

meta.source: PubChem BioAssay (NCATS)
